From: patent US20140072563A1

Target: T1, hErbB3.hFc (soluble dimeric human ErbB3 extracellular domain fused to human Fc) (human)
T1 construct: called dimeric
T1 sequence (chain, as listed by the source limits assumed): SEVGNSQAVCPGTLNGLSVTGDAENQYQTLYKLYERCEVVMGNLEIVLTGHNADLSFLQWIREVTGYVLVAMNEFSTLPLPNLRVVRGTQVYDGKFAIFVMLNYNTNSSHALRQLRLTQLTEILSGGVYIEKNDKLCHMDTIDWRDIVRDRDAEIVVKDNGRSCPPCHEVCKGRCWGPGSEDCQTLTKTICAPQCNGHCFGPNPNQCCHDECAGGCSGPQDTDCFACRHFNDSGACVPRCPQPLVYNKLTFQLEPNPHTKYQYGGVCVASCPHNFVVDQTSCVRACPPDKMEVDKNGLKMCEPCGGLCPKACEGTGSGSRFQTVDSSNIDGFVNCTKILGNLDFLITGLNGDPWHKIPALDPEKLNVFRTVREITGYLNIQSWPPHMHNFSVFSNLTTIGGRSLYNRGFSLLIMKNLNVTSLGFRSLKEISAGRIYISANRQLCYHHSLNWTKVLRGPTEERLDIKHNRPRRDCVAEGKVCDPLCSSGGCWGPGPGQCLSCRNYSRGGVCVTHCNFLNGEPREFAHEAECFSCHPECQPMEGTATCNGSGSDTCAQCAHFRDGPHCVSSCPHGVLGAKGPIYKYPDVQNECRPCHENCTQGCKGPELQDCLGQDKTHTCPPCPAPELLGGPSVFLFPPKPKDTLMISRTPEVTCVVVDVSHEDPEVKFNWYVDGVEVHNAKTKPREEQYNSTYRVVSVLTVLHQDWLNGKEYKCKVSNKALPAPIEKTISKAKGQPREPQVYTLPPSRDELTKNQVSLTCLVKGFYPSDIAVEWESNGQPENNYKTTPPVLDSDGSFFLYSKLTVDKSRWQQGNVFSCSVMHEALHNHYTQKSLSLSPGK
Assay: SPR (Biacore), 25 C, mAb capture format
Attribute Measured: T½ (min)
Report the figure in min without appending any unit label.

Binder	Measured Result
H2M1824N (antibody, V domains shown, Hybridoma chimeric antibody: human variable domains, mouse IgG2 Fc (H2M prefix)) VH: EVQLVESGGGVVRPGGSLRLSCAASGFTFDDYGMSWVRQAPGKGLECVSGINWNGGSTDYADSVKGRFTISRDNAKNSLYLQMNSLRAEDTASYYCARDGGDWDYFDLWGRGTLVTVSS VL: EIVMTQSPATLSVSPGERATLSCRASQSVSSNLAWYQQKPGQAPRLLIYGASTRATGIPARFSGSGSGTEFTLTISSLQSEDFAVYFCQEYNDWPLTFGGGTKVEIK	8030
H1M1940N (antibody, V domains shown, Hybridoma chimeric antibody: human variable domains, mouse constant domains (H1M prefix, mouse Fc)) VH: QVQVVESGGGVVQPGRSLRLSCAASGFTFSDYGMHWVRQAPGKGLEWVAIISYDGSNKYYADSVKGRFTVSRDNSKNTLYLQLDSLRPEDAAVFYCAREGAFNLDYYAMDVWGQGTTVTVSS VL: AIQMTQSPSSLSASVGDRVTITCRASQDIRNDLGWYQQKPGKAPNLLIYAASSLQSGVPSRFSGSGSGTDFTLTISSLQPEDFATYYCLQDSNYPLTFGGGTKVEIK	475

[Q] Write down T½ measured for item H2M1934N (antibody, V domains shown, Hybridoma chimeric antibody: human variable domains, mouse IgG2 Fc (H2M prefix)) VH: EVQLVQSGGGLVKPGGSLRLSCAASGFTFSNFNMNWVRQAPGKGLEWVSFISSLSTYTYYADSVKGRFTISRDNAKNSLYLQMNSLRAEDTAVYYCARDDGDHDWFDPWGQGTLVTVSS VL: EIVLTQSPDTLSLSPGERATLSCRASQSVSSNYLAWYQQKPGQAPRLLIYSASNRATGIPDRFSGSGSGTDFTLTISRLEPEDFAVYYCQQYDSSYTFGQGTKLEIK
[A] 1450
